Just for reference, patent US9617258B2 is where these values come from.

test: Stability of JAK3 covalent inhibitors in human whole blood; type: in vitro ADME; conditions: both sexes, whole blood, 37° C., read-out: Human blood stability t1/2
Listing of recorded half-life at 1 μM by entry.

[
  {
    "molecule": "O=C(C1=CCC1)N1CC[C@@H]2CCN(c3ncnc4[nH]ccc34)[C@@H]2C1 [Example 86]",
    "half-life at 1 μM": "> 6 h"
  },
  {
    "molecule": "C=CC(=O)N1CC2CCN(c3cnc4[nH]cc(C(=O)NC(C)C)c4n3)C2C1 (centres unmarked) [Example 178]",
    "half-life at 1 μM": "2.38 h"
  },
  {
    "molecule": "C=CC(=O)N1CCC[C@@H](Nc2ncnc3[nH]cc(-c4cncc(F)c4)c23)C1 [Example 23]",
    "half-life at 1 μM": "> 6 h"
  },
  {
    "molecule": "C=CC(=O)N1CCC(Nc2cnc3[nH]cc(C(=O)N[C@H](C)CCC)c3n2)CC1 [Example 274]",
    "half-life at 1 μM": "> 6 h"
  },
  {
    "molecule": "C=CC(=O)N1CCC[C@@H](Nc2ncnc3[nH]ccc23)C1 [Example 12]",
    "half-life at 1 μM": "> 5.53 h"
  },
  {
    "molecule": "C=CC(=O)N1CCC[C@](C)(Nc2ncnc3[nH]ccc23)C1 [Example 70]",
    "half-life at 1 μM": "5.72 h"
  },
  {
    "molecule": "C=CC(=O)N1CCC(Nc2cnc3[nH]cc(C(=O)NCC(C)(F)F)c3n2)CC1 [Example 282]",
    "half-life at 1 μM": "4.05 h"
  },
  {
    "molecule": "C=CC(=O)N1CCC(Nc2cnc3[nH]cc(C(=O)NC[C@H](C)CC(F)(F)F)c3n2)CC1 [Example 241]",
    "half-life at 1 μM": "> 5.17 h"
  }
]

---

test: Stability of JAK3 covalent inhibitors in human whole blood; type: in vitro ADME; conditions: both sexes, whole blood (fresh, pooled, K2-EDTA), 37° C., read-out: Human blood stability t1/2

[
  {
    "smilesRepresentation": "C=CC(=O)N1C[C@@H]2C[C@H]1CN2c1cnc2[nH]cc(C(=O)NC(C)C)c2n1",
    "half-life at 1 μM (h)": 1.95
  }
]

---

test: Stability of JAK3 covalent inhibitors in human whole blood; type: in vitro ADME; conditions: both sexes, whole blood, 37° C., read-out: Human blood stability t1/2;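 further: parent compound remaining over incubation time quantified by LC-MS/MS as peak area ratio against an internal standard, using pooled K2-EDTA blood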
reportedMetric: half-life at 1 μM (h)

[
  {
    "compound": "C=CC(=O)N1CCC[C@@H](Nc2ncnc3[nH]cc(F)c23)C1",
    "reportedMetric": "half-life at 1 μM",
    "resultModifier": ">",
    "endpointResult": 6
  },
  {
    "compound": "C=CC(=O)N1CCN(c2cnc3[nH]cc(C(=O)NC(C)C)c3n2)CC1",
    "reportedMetric": "half-life at 1 μM",
    "resultModifier": "=",
    "endpointResult": 4.16
  },
  {
    "compound": "C#Cc1c[nH]c2ncnc(N3CC[C@H]4CCN(C(=O)C=C)C[C@H]43)c12",
    "reportedMetric": "half-life at 1 μM",
    "resultModifier": "=",
    "endpointResult": 2.5
  },
  {
    "compound": "C=CC(=O)N1CCC(Nc2cnc3[nH]cc(C(=O)NC(C)C4CC4)c3n2)CC1 (stereo not shown)",
    "reportedMetric": "half-life at 1 μM",
    "resultModifier": "=",
    "endpointResult": 3.67
  }
]
